Tested on: WEEV California
Experimental protocol: microbe, parasite or virus in culture
Type: cell-based
Condition label: Western equine encephalitis virus, Vero 76, 48 h, read-out: WEEV California EC50 nM
List of EC50 values.

1) O=c1c2cc([N+](=O)[O-])ccc2nc(C2CCCN2)n1-c1cccc(F)c1 (stereo not shown) [Example 40]
501 to 1000 nM
2) COc1ccc(-n2c([C@@H]3CCCN3C3CCOCC3)nc3ccc(F)c(F)c3c2=O)cc1 [Example 31]
> 1000 nM

// EC50 lookup, molecule = CN1CCC(N2CCC[C@@H]2c2nc3ccc([N+](=O)[O-])cc3c(=O)n2-c2ccccc2)CC1 [Example 4] , result: > 1000 nM

Documented EC50 of COc1ccc(-n2c(C3CCCN3)nc3c(-c4ccc(C(C)=O)nc4)cc(C#N)cc3c2=O)cc1F (stereo not shown) [Example 129] : 1 to 50 nM

The measured EC50 associated with COc1c(F)cc(-n2c(C3CCCN3)nc3c(C#CC(C)(C)O)cc(C#N)cc3c2=O)cc1F (stereo not shown) [Example 193] reads 51 to 150 nM

The molecule listed as COc1ccc(-n2c([C@H]3CCCN3)nc3c(-c4ccc(C)nc4)cc([N+](=O)[O-])cc3c2=O)cc1F [Example 92] has a reported EC50 of 1 to 50 nM

GET /value?item= COCCOc1c(F)cc(-n2c(C3CCCN3)nc3c(-c4ccnc(C)c4)cc(C#N)cc3c2=O)cc1F (stereo not shown) [Example 161] &field=EC50 returns 151 to 500 nM

Looking up COc1ccc(-n2c([C@H]3CCCN3)nc3c(-c4ccnc(F)c4)cc(C#N)cc3c2=O)cc1F [Example 104] , I found its EC50 recorded as 1 to 50 nM

So, COc1ccc(-n2c(C3CCCN3)nc3c(-c4ccc(-c5ccccc5)nc4)cc(C#N)cc3c2=O)cc1F (stereo not shown) [Example 133] ? Its EC50 was 1 to 50 nM

Input O=c1c2cc([N+](=O)[O-])ccc2nc(C2CCCN2)n1-c1ccccc1F (stereo not shown) [Example 41] . Output EC50: > 1000 nM
